Hello, the source for this data is paper PMC6150365, in case you need it.

RUN_DESCRIPTION: Pharmacokinetic study in rats after oral administration of SYD extract and its single and combined TCM extracts (UPLC-MS/MS of plasma)
PROTOCOL_CONDITIONS: male, Sprague-Dawley, rat, plasma, po, 0.68 g/kg, AUC(0–∞), rat plasma, oral GU extract 0.68 g/kg, n = 6
OBSERVATION_TYPE: AUC(0-inf) (ng·h/mL)

> print(dat)
                            molecule.smiles  observation.type  numeric.readout
1  O=C1C[C@@H](c2ccc(O[C@@H]3O[C@H](CO)[C@@H](O)[C@H](O)[C@H]3O)cc2)Oc2cc(O)ccc21        AUC(0-inf)              190
